molecules and their reported LD50 at 5 min
# Test method notes: Acute toxicity in mice, i.v. bolus
# Assay type: in vivo
# Test conditions: mouse, in vivo, iv; LD50-interval: between highest dose where 4 mice survived and lowest dose where 4 mice died within 5 minutes after i.v. bolus
Readout name: LD50 at 5 min

{"Molecule": "CC(C)N(CCC(c1ccccc1)c1ccccc1O)C(C)C (racemic) [Compound 1]", "Result": "10 to 20 mg/kg"}
{"Molecule": "CC(C)N(CCC(c1ccccc1O)c1ccccc1O)C(C)C [Compound 13]", "Result": "5 to 10 mg/kg"}
{"Molecule": "CN(CCC(c1ccccc1)c1cc(O)ccc1O)C(C)(C)C (centres unmarked) [Compound 8]", "Result": "> 6 mg/kg"}
{"Molecule": "COc1ccccc1C(CCN(C(C)C)C(C)C)c1ccccc1 (centres unmarked) [Compound 3]", "Result": "3 to 10 mg/kg"}
{"Molecule": "Cc1ccc(O)c(C(CCN(C(C)C)C(C)C)c2ccccc2)c1 (centres unmarked) [Compound 4]", "Result": "30 to 40 mg/kg"}
{"Molecule": "CC(CC(c1ccccc1)c1ccccc1)NC(C)(C)C (centres unmarked) [Terodiline, terodiline, reference compound]", "Result": "15 to 20 mg/kg"}
{"Molecule": "Cc1ccc(O)c(C(CCN(C(C)C)C(C)C)c2ccccc2)c1.O=C(O)C(O)C(O)C(=O)O (single isomer, unassigned; (+)) [Compound 4a]", "Result": "10 to 20 mg/kg"}
{"Molecule": "COc1ccccc1C(CCN(C)C)c1ccccc1 (centres unmarked) [GB-A-1.169.944, reference compound]", "Result": "10 to 15 mg/kg"}
{"Molecule": "COc1ccccc1C(CCN(C)C(C)(C)C)c1ccccc1 (centres unmarked) [Compound 2]", "Result": "10 to 20 mg/kg"}
{"Molecule": "CN(CCC(c1ccccc1O)c1ccccc1O)C(C)(C)C [Compound 5]", "Result": "30 to 45 mg/kg"}
{"Molecule": "CC(C)N(CCC(c1ccccc1)c1cc(O)ccc1O)C(C)C (centres unmarked) [Compound 7]", "Result": "30 to 50 mg/kg"}

###

# Test system: portal vein
# Test method notes: Noradrenaline antagonism on isolated portal vein
# Set-up: species or system rat
# Test conditions: Rattus norvegicus, 10 min, read-out: Anti-N.A. effect IC50 (M)
compounds and their reported IC50
Readout name: IC50

{"Compound": "COc1ccccc1C(CCN(C(C)C)C(C)C)c1ccccc1 (stereo not drawn)", "Result": "3.6e-06 M"}
{"Compound": "Cc1ccc(O)c(C(CCN(C(C)C)C(C)C)c2ccccc2)c1 (stereo not drawn)", "Result": "5.5e-06 M"}
{"Compound": "CC(C)N(CCC(c1ccccc1O)c1ccccc1O)C(C)C", "Result": "3e-05 M"}

###

# System: isolated urinary bladder
# Test method notes: Anticholinergic activity on isolated urinary bladder (inhibition of carbachol-induced contraction of bladder strips)
# Set-up: species or system guinea-pigs
# Test conditions: read-out: Antichol. effect IC50; guinea-pig bladder strips contracted with carbachol 3 x 10^-6M; 60 minutes incubation with antagonist; tartrate
pIC50: −log10 of the molar value.
Readout name: pIC50

{"Molecule": "Cc1ccc(O)c(C(CCN(C(C)C)C(C)C)c2ccccc2)c1.O=C(O)C(O)C(O)C(=O)O (single isomer, unassigned; (+)) [Compound 4a, tartrate]", "Tgt": "isolated urinary bladder", "Measured number": 7.89}
